# Assay Method Text: log P determination by HPLC on reversed-phase columns (C 18), analogously to OECD Guideline 117
# Format: physicochemical
# Experimental Context: reversed-phase C18 HPLC column; neutral range, pH 7.8, 0.001 molar aqueous ammonium hydrogencarbonate and acetonitrile; read-out: log P[b] / log P(neutral)
Label No if chromatographic logP falls below 2; label Yes in every other case.

For orientation, consider the following solved cases.
Cc1cc(F)c(N2CCNC2=O)cc1SCC(F)(F)F = Yes
Cc1cc(F)c(N2C(=O)C(=O)N(CC(F)F)C2=O)cc1SCC(F)(F)F = No
Fc1cc(Br)c(SCC(F)(F)F)cc1Br = Yes
[O-][S+](CC(F)(F)F)c1cc(B(O)O)ccc1Cl (stereo not shown) = No
Cc1cc(F)c(N2CC(C)OC2=O)cc1[S+]([O-])CC(F)(F)F (stereo not shown) = No

In: Does the compound Cc1cc(C)c(B2OC(C)(C)C(C)(C)O2)cc1SCC(F)(F)F have recorded chromatographic logP that is 2 or more?
Out: Yes

In: I'd appreciate it if you could say whether CCn1c(=O)n(-c2ccccc2)c(=O)n1-c1cc([S+]([O-])CC(F)(F)F)c(C)cc1F (stereo not shown) has chromatographic logP at least equal to 2.
Out: Yes

In: hey, is chromatographic logP for this one >= 2? OB(O)c1ccc(Cl)c(SCC(F)(F)F)c1
Out: Yes

In: State whether the measured chromatographic logP reaches 2, counting equality as reaching it, for Cc1cc(F)c(N2C(=O)C(C)(C)C(=O)N2C)cc1[S+]([O-])CC(F)(F)F (stereo not shown)
Out: No

In: Quick check: does Cc1cc(C)c([S+]([O-])CC(F)(F)F)cc1B(O)O (stereo not shown) have chromatographic logP greater than or equal to 2?
Out: No

* * *

# Assay Method Text: log P determination by HPLC on reversed-phase columns (C 18), analogously to OECD Guideline 117
# Assay type: physicochemical
# Experimental Context: reversed-phase C18 HPLC column; acidic range, pH 2.7, 0.1% aqueous formic acid and acetonitrile; read-out: log P[a] / log P(HCOOH)
# Experimental: The log P values were determined analogously to OECD Guideline 117 (EC Directive 92/69/EEC) by HPLC (high-performance liquid chromatography) using reversed-phase columns (C 18), by the following methods: [a] The LC-MS determination in the acidic range was effected at pH 2.7 with 0.1% aqueous formic acid and acetonitrile (contains 0.1% formic acid) as eluents; linear gradient from 10% acetonitrile to 95% acetonitrile. log P^[a] is also referred to as log P(HCOOH). [b] […]
Response field class: enum, chosen by comparing chromatographic logP against range 1: < 0.9; range 2: ≥ 0.9 and < 2; range 3: ≥ 2

Solved entries (count: 8):
Cn1[nH]c(=O)n(C(C)(C)C)c1=O [drawing 120 R1=CH3 R10=C(CH3)3] = range 1
FC(F)(F)CSc1cc(Br)ccc1Br [VIIa-13] = range 3
Cc1cc(F)c(N2C(=O)C(C)(C)C(=O)N2C)cc1[S+]([O-])CC(F)(F)F (stereo not drawn) [Example 177] = range 2
Cc1cc(F)c(N2C(=O)OC(C)(C)C2=O)cc1[S+]([O-])CC(F)(F)F (stereo not drawn) [Example 110] = range 3
CCn1[nH]c(=O)n(C(C)C)c1=O [drawing 120 R1=CH2CH3 R10=CH(CH3)2] = range 1
Cc1cc(F)c(N2C(=O)OC(C)(C)C2=O)cc1SCC(F)(F)F [Example 111] = range 3
Cc1cc(F)c(-n2c(=O)n(C)n(C)c2=O)cc1[S+]([O-])CC(F)(F)F (stereo not drawn) [Example 117] = range 2
Cc1cc(F)c(N2C(=O)C(=O)N(CC(F)F)C2=O)cc1[S+]([O-])CC(F)(F)F (stereo not drawn) [Example 103] = range 3

Turning to the following molecule.
In: Category of CC(C)Cn1[nH]c(=O)n(C2CC2)c1=O [drawing 120 R1=CH2CH(CH3)2 R10=cyclopropyl] :
Out: range 2

* * *

For each entry below, report its chromatographic logP value.
# Assay Method Text: log P determination by HPLC on reversed-phase columns (C 18), analogously to OECD Guideline 117
# Format: physicochemical
# Experimental Context: reversed-phase C18 HPLC column; neutral range, pH 7.8, 0.001 molar aqueous ammonium hydrogencarbonate and acetonitrile; read-out: log P[b] / log P(neutral)

Cc1cc(F)c(-n2c(=O)n(C3CC3)c(=S)n2C)cc1SCC(F)(F)F = 3.39
C=CCn1c(OC)n[nH]c1=O [drawing 121 R1=CH3 R10=CH2CH═CH2] = 0.47
Cc1cc(F)c(N2C(=O)CCC2=O)cc1SCC(F)(F)F = 2.45
Cc1cc(F)c(N2CCCC2=NCC(F)(F)F)cc1SCC(F)(F)F = 4.24
Cc1cc(F)c(N2CCCC2=NCC(F)(F)F)cc1[S+]([O-])CC(F)(F)F (stereo not shown) = 2.88
CCn1c(=O)n(CC)n(-c2ccc(C)c(SCC(F)(F)F)c2)c1=O = 3.29

Items follow; give chromatographic logP for each.
1. Cc1cc(C)c(B(O)O)cc1SCC(F)(F)F
2. Cc1cc(F)c(N2C(=O)C(=O)N(CC(F)F)C2=O)cc1[S+]([O-])CC(F)(F)F (stereo not shown)
3. COc1ccc(B(O)O)cc1[S+]([O-])CC(F)(F)F (stereo not shown)

Out:
2.57
0.87
1.37

* * *

# Assay Method Text: log P determination by HPLC on reversed-phase columns (C 18), analogously to OECD Guideline 117
# Assay type: physicochemical
# Experimental Context: reversed-phase C18 HPLC column; acidic range, pH 2.7, 0.1% aqueous formic acid and acetonitrile; read-out: log P[a] / log P(HCOOH)
Endpoint Name: chromatographic logP
Give bare numbers.

Cc1cc(C)c(B(O)O)cc1SCC(F)(F)F = 2.58
Cc1cc(F)c(N2C(=O)CSC2=NCC(F)(F)F)cc1SCC(F)(F)F = 3.6
Cc1cc(F)c(-n2c(=O)n(C3CC3)c(=S)n2C)cc1SCC(F)(F)F = 3.44

Working through the 2 molecules below one at a time, give chromatographic logP for each.
1. Cc1ccc(-n2c(=O)n(C)c(=O)n2C)cc1[S+]([O-])CC(F)(F)F (centres unmarked)
2. CC1(C)OB(c2cc(SCC(F)(F)F)c(Cl)cc2Cl)OC1(C)C

Out:
1. 1.63
2. 5.68

* * *

# Assay Method Text: log P determination by HPLC on reversed-phase columns (C 18), analogously to OECD Guideline 117
# Format: physicochemical
# Experimental Context: LC-MS in the acidic range, pH 2.7, 0.1% aqueous formic acid / acetonitrile, HPLC reversed-phase C 18
# Protocol: The log P values were determined analogously to OECD Guideline 117 (EC Directive 92/69/EEC) by HPLC (high-performance liquid chromatography) using reversed-phase columns (C 18), by the following methods: [a] The LC-MS determination in the acidic range was effected at pH 2.7 with 0.1% aqueous formic acid and acetonitrile (contains 0.1% formic acid) as eluents; linear gradient from 10% acetonitrile to 95% acetonitrile. log P^[a] is also referred to as log P(HCOOH). [b] […]
Kindly supply the reported logP (HCOOH) values for the records listed here.
Numbers only.

Take a look at these entries with their results.
Cn1c(=O)n(C2CC2)c(=O)n1-c1ccc(C#N)c([S+]([O-])CC(F)(F)F)c1 (centres unmarked) = 1.93
Cc1cc(F)c(-n2c(=O)n(C3CCCCC3)c(=O)n2C)cc1SCC(F)(F)F = 4.17
Cn1c(=O)n(C)n(-c2ccc(Br)c([S+]([O-])CC(F)(F)F)c2)c1=O (centres unmarked) = 2.05
Cc1cc(F)c(-n2c(=O)n(C(C)(C)C)c(=O)n2C)cc1SCC(F)(F)F = 3.85
Cn1c(=O)n(C2CC2)c(=O)n1-c1cc(SCC(F)(F)F)c(F)cc1F = 2.67
Cc1cc(F)c(N2C(=O)C(C)(C)C(=O)N2Cc2ccccc2)cc1SCC(F)(F)F = 3.80
Cn1c(=O)n(C2CC2)c(=O)n1-c1ccc(Br)c([S+]([O-])CC(F)(F)F)c1 (centres unmarked) = 2.27
Cc1cc(F)c(-n2c(=O)n(C)c(=O)n2-c2cc(F)c(C#N)cc2F)cc1SCC(F)(F)F = 3.40

Hi team, please reply with logP (HCOOH) for each item in this list.
1. CCn1c(=O)n(C(C)C)c(=O)n1-c1ccc(C)c(SCC(F)(F)F)c1
2. Cc1cc(F)c(N2CC(=O)N(C3CC3)C2=O)cc1SCC(F)(F)F
3. Cc1cc(F)c(-n2c(=O)n(CC(F)F)c(=O)n2CC(F)(F)F)cc1SCC(F)(F)F
4. Cc1cc(F)c(N2C(=O)C(=O)N(CC(C)(C)C)C2=S)cc1[S+]([O-])CC(F)(F)F (centres unmarked)
5. Cc1cc(F)c(-n2[nH]c(=O)n(C3CC3)c2=O)cc1SCC(F)(F)F [Example 66]
6. Cc1cc(F)c(-n2c(=O)n(C(C)C)c(=O)n2CC(C)C)cc1SCC(F)(F)F

Out:
3.77
2.91
3.44
3.85
2.30
4.27
